The entries below are paired with their reported Kd.
B1: scFv; the commonest letter at each place (parent)
chain 1: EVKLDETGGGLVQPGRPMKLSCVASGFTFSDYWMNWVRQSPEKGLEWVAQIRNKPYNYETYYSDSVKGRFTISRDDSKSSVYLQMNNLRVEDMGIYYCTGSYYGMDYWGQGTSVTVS
chain 2: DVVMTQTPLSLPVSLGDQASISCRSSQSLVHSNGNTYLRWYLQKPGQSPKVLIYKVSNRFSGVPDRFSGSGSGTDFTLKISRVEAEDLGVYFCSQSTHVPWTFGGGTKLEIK

# Variants of: B1
# Experimental protocol: Kd (Tite-Seq)
# Condition description: with fluorescein; format: scFv 4-4-20, heavy + light

[
  {
    "Sequence change": "chain 1 W108Q",
    "Kd": "0.0233 µM"
  },
  {
    "Sequence change": "chain 1 N35Y",
    "Kd": "≥ 10 µM"
  },
  {
    "Sequence change": "chain 1 D31S Y32G",
    "Kd": "0.24 µM"
  },
  {
    "Sequence change": "chain 1 N35H V37Y",
    "Kd": "≥ 10 µM"
  },
  {
    "Sequence change": "chain 1 M105G",
    "Kd": "≥ 10 µM"
  },
  {
    "Sequence change": "chain 1 M105L Y107V",
    "Kd": "1.72 µM"
  },
  {
    "Sequence change": "chain 1 D106H Y107D",
    "Kd": "≥ 10 µM"
  },
  {
    "Sequence change": "chain 1 M34L V37T",
    "Kd": "≥ 10 µM"
  },
  {
    "Sequence change": "chain 1 N35I W36N",
    "Kd": "≥ 10 µM"
  },
  {
    "Sequence change": "chain 1 W36G V37N",
    "Kd": "≥ 10 µM"
  },
  {
    "Sequence change": "chain 1 G100P G104H",
    "Kd": "≥ 10 µM"
  },
  {
    "Sequence change": "chain 1 T28K V37L",
    "Kd": "0.143 µM"
  },
  {
    "Sequence change": "chain 1 G100R G109C",
    "Kd": "≥ 10 µM"
  },
  {
    "Sequence change": "chain 1 G100F S101M",
    "Kd": "≥ 10 µM"
  },
  {
    "Sequence change": "chain 1 M34N W36Y",
    "Kd": "≥ 10 µM"
  },
  {
    "Sequence change": "chain 1 T28S S30T W33R",
    "Kd": "≥ 10 µM"
  },
  {
    "Sequence change": "chain 1 S101F G104L",
    "Kd": "≥ 10 µM"
  },
  {
    "Sequence change": "chain 1 W36P",
    "Kd": "≥ 10 µM"
  },
  {
    "Sequence change": "chain 1 W108M",
    "Kd": "≤ 0.000316 µM"
  },
  {
    "Sequence change": "chain 1 S101I G109I",
    "Kd": "≥ 10 µM"
  },
  {
    "Sequence change": "chain 1 G109Y",
    "Kd": "≥ 10 µM"
  },
  {
    "Sequence change": "chain 1 F29D",
    "Kd": "≥ 10 µM"
  }
]
